Each entry below carries its recorded pKa.
experiment: physchem
Description: pKa value of the compound
I only need the number, thanks.

| MOLECULE | READOUT_LABEL | OBSERVED_VALUE |
| --- | --- | --- |
| COC(=O)C1=C(C)NC(C)=C(C(=O)OCCN(C)Cc2ccccc2)C1c1cccc([N+](=O)[O-])c1 (stereo not drawn) | pKa | 7.17 |
| CN1C(C(=O)Nc2ccccn2)=C(O)c2sccc2S1(=O)=O | pKa | 4.95 |

Q. Answer with the recorded pKa of CNC(=C[N+](=O)[O-])NCCSCc1ccc(CN(C)C)o1 only.
A. 8.48

* * *

details: human, plasma
B(DPB) of 90% or higher: y. Under 90%: n.

Look over these answered cases.
| COMPOUND | DISCRETE_LABEL |
| --- | --- |
| CNC(=C[N+](=O)[O-])NCCSCc1ccc(CN(C)C)o1 | n |
| CCCC(=O)Nc1ccc(OCC(O)CNC(C)C)c(C(C)=O)c1 (configuration not stated) | n |
| CN(Cc1cnc2nc(N)nc(N)c2n1)c1ccc(C(=O)N[C@@H](CCC(=O)O)C(=O)O)cc1 [METHOTREXATE] | n |
| COC(=O)C1=C(C)NC(C)=C(C(=O)OCCN(C)Cc2ccccc2)C1c1cccc([N+](=O)[O-])c1 (configuration not stated) | y |
| COc1ccc2cc([C@H](C)C(=O)O)ccc2c1 | y |

Here is the next item to consider.
Q. Please indicate if the recorded B(DPB) for NS(=O)(=O)c1cc(C(=O)O)c(NCc2ccco2)cc1Cl [FUROSEMIDE] meets or exceeds 90%.
A. n

* * *

assay: physchem; details: buffer, pH 7.4
Description: Distribution coeeficient for the compound at pH7.4 (Log D7.4)
READOUT_LABEL: logD

The following compounds have reported results that may help.
| COMPOUND | READOUT_LABEL | OBSERVED_VALUE |
| --- | --- | --- |
| CN1C(C(=O)Nc2ccccn2)=C(O)c2sccc2S1(=O)=O [TENOXICAM] | logD | -0.32 |
| COC(=O)C1=C(C)NC(C)=C(C(=O)OCCN(C)Cc2ccccc2)C1c1cccc([N+](=O)[O-])c1 (centres undefined) [NICARDIPINE] | logD | 4.25 |
| CN(Cc1cnc2nc(N)nc(N)c2n1)c1ccc(C(=O)N[C@@H](CCC(=O)O)C(=O)O)cc1 [METHOTREXATE] | logD | -2.52 |

Consider now this further compound.
Q. Quote logD reported for CNC(=C[N+](=O)[O-])NCCSCc1ccc(CN(C)C)o1 [RANITIDINE] please.
A. -0.48
